Molecular target: AChE in SH-SY5Y cells (Homo sapiens, UniProt P22303)
Sequence (P22303 32-614): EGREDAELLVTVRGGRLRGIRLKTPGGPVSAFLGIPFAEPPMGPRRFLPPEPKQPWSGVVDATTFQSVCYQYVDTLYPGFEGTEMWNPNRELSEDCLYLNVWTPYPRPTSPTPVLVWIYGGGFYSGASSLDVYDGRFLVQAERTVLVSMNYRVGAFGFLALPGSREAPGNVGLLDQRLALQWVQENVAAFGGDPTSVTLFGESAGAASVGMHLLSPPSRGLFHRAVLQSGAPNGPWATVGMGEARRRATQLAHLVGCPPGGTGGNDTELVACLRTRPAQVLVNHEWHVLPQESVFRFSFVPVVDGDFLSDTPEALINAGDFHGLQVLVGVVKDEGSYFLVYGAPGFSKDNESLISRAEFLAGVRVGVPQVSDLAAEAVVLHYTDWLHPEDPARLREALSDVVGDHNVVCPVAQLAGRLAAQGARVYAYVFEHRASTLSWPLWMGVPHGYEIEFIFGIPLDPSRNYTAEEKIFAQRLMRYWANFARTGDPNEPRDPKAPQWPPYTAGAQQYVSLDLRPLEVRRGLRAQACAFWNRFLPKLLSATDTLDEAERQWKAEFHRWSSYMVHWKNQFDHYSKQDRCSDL
Assay: cell-based
Counter-ions that a name gives are not always drawn.

COMPOUND	CC-v2 (curve classes)
Cc1cc(OC(=O)N(C)C)nn1C(=O)N(C)C [Dimetilan]	-1.1
CC(C)C[C@H]1C(=O)N2CCC[C@H]2[C@]2(O)O[C@](NC(=O)[C@@H]3C=C4c5cccc6[nH]c(Br)c(c56)C[C@H]4N(C)C3)(C(C)C)C(=O)N12 [Bromocriptine mesylate]	-1.1
CC/N=c1\cc2oc3cc(NCC)c(C)cc3c(-c3ccccc3C(=O)OCC)c-2cc1C [Rhodamine 6G]	-1.1
Cc1nc2ccccn2c(=O)c1CCN1CCC(C(=O)c2ccc(F)cc2)CC1 [Pirenperone]	-2.1
CCOP(=S)(OCC)Oc1ccc([N+](=O)[O-])cc1 [Parathion]	-2.1
CCN=C1C=CC(=C(c2ccc(N(CC)CC)cc2)c2ccc(N(CC)CC)cc2)c2ccccc21.Cl [Basic Blue 7]	-2.1
CCCCCCCCCC[N+](C)(CCCCCCCCCC)CCC[Si](OC)(OC)OC.[Cl-] [Disiquonium chloride]	4
CCOC(=O)CCN(SN(C)C(=O)Oc1cccc2c1OC(C)(C)C2)C(C)C [Benfuracarb]	-1.1

---

Biological target: AChE in neural stem cell spheroids (Homo sapiens, UniProt P22303)
Sequence (P22303 32-614): as above
Assay: cell-based
Details: potency (IC50), Neural stem cell spheroid (48 h)
pIC50: −log10 of the molar value. Where a name gives a salt, the structure may show the parent alone.
METRIC: pIC50

> print(dat)
                                   compound  recorded.measurement
1  CCN(C(=O)c1cc(C)cc(OC[C@H](C)Nc2ccncc2)c1)C(C)C.Cc1ccc(S(=O)(=O)O)cc1 [GW473178E methyl benzene sulfonic acid]                  4.51
2  CCOP(=S)(Oc1cnc(C(C)(C)C)nc1)OC(C)C (stereo not drawn)                  5.43
3                     CNC(=O)Oc1ccccc1C(C)C                  4.40
4  CCCSP(=O)(OCC)Oc1ccc(Br)cc1Cl (stereo not drawn)                  6.11
5               CNC(=O)Oc1cccc2c1OC(C)(C)C2                  5.32
6  CCOC(=O)c1ccc(NC(=O)CN2CCCCC2)cc1 [Sulcaine, reference compound]                  4.86
7                    CCCCSP(=O)(SCCCC)SCCCC                  4.85
8  CCCCOc1ccc(C(=O)CCN2CCCCC2)cc1 [Dyclonine HCl, reference compound]                  5.04
9  COP(=S)(Oc1cc(Cl)c(Br)cc1Cl)c1ccccc1 (stereo not drawn)                  4.16

---

The entries below come with measured pIC50 values attached.
Biological target: AChE in SH-SY5Y spheroids (Homo sapiens, UniProt P22303)
Sequence (P22303 32-614): as above
Experiment: cell-based
Conditions: read-out: potency (IC50), SH-SY5Y spheroids (48 h)
pIC50: −log10 of the molar value.
METRIC: pIC50

> print(dat)
                                   compound  metric  recorded.measurement
1            Cc1nc(N(C)C)nc(OC(=O)N(C)C)c1C   pIC50                  4.82
2          CCOP(=O)(OCC)Oc1cc(C)nc(C(C)C)n1   pIC50                  6.30
3  CCOP(=S)(OCC)OC(Cl)C(Cl)(Cl)Cl (stereo not drawn)   pIC50                  4.43

---

Biological target: recombinant human AChE (Homo sapiens, UniProt P22303)
Assay: biochemical
METRIC: AChE inhibition (result in words)

> print(dat)
                                   compound  recorded.measurement
1       CCOP(=S)(OCC)SCSC(C)(C)C [Terbufos]  did not show effects
2  CCOP(=S)(OCC)Oc1ccc2c(C)c(Cl)c(=O)oc2c1 [Coumaphos]  did not show effects
3  CCOP(=S)(OCC)SCn1c(=O)oc2cc(Cl)ccc21 [Phosalone]  did not show effects

---

Target: AChE in neural stem cell spheroids (Homo sapiens, UniProt P22303)
Assay: cell-based
Details: potency (IC50), Neural stem cell spheroid (48 h)
METRIC: IC50 (µM)

> print(dat)
                                   molecule  recorded.measurement
1          CCOP(=S)(OCC)Oc1cc(C)nc(C(C)C)n1                  0.09
2           CCOP(=S)(OCC)SCn1nnc2ccccc2c1=O                  4.36
3  CCc1ccc(C(=O)C(C)CN2CCCCC2)cc1.Cl (stereo not drawn) [Eperisone hydrochloride, reference compound]                  13.3
4  Cc1c(Cl)c(=O)oc2cc(OP(=O)(OCCCl)OCCCl)ccc12                  0.18
5  [H]/N=C(\N/C(=N/[H])NCCCCCCNC(=N)NC(=N)Nc1ccc(Cl)cc1)Nc1ccc(Cl)cc1 [Chlorhexidine diacetate, reference compound]                  9.21
6   CCOP(=S)(OCC)Oc1ccc2c(C)c(Cl)c(=O)oc2c1                  21.4
7  CCCCN(CCCC)SN(C)C(=O)Oc1cccc2c1OC(C)(C)C2                  8.89
8               CNC(=O)Oc1cccc2c1OC(C)(C)O2                  47.1
9  CS/C(C)=N\OC(=O)N(C)SN(C)C(=O)O/N=C(\C)SC                   7.8

---

The entries below come with measured IC50 values attached.
Molecular target: AChE in SH-SY5Y cells (Homo sapiens, UniProt P22303)
Assay: cell-based
Conditions: potency (IC50), SH-SY5Y cells monolayer
Counter-ions that a name gives are not always drawn.
METRIC: IC50 (µM)

> print(dat)
                                   molecule  metric  unit.label  recorded.measurement
1  CCCCOc1ccc(C(=O)CCN2CCCCC2)cc1 [Dyclonine HCl, reference compound]    IC50          µM                  20.2
2  COP(=S)(Oc1cc(Cl)c(Br)cc1Cl)c1ccccc1 (centres unmarked)    IC50          µM                    28
3  CC/N=c1\cc2oc3cc(NCC)c(C)cc3c(-c3ccccc3C(=O)OCC)c-2cc1C    IC50          µM                  12.4
4  CS/C(C)=N\OC(=O)N(C)SN(C)C(=O)O/N=C(\C)SC    IC50          µM                  2.81
5                    CCCCSP(=O)(SCCCC)SCCCC    IC50          µM                  15.3
6  CN1C[C@H](CNC(=O)OCc2ccccc2)C[C@@H]2c3cccc4c3c(cn4C)C[C@H]21 [Metergoline, reference compound]    IC50          µM                  4.85
7  CN1CCc2cc(Cl)c(O)cc2[C@H]2c3ccccc3CC[C@@H]21 [Ecopipam, reference compound]    IC50          µM                  15.8
8  CCN1CCCC1CNC(=O)c1cc(S(=O)(=O)CC)c(N)cc1OC (centres unmarked) [Amisulpride, reference compound]    IC50          µM                  30.7

---

Molecular target: AChE in neural stem cell spheroids (Homo sapiens, UniProt P22303)
Assay: cell-based
Conditions: potency (IC50), Neural stem cell spheroid (48 h)
The entries below come with measured IC50 values attached.
METRIC: IC50 (µM)

> print(dat)
                                    compound  unit.label  recorded.measurement
 1           Cc1cc(OC(=O)N(C)C)nn1C(=O)N(C)C          µM                  3.12
 2             CCOP(=S)(OCC)SCSP(=S)(OCC)OCC          µM                  0.48
 3  CC/N=c1\cc2oc3cc(NCC)c(C)cc3c(-c3ccccc3C(=O)OCC)c-2cc1C          µM                  40.3
 4  CCOP(=S)(OCC)SC(CCl)N1C(=O)c2ccccc2C1=O (stereo not shown)          µM                  20.1
 5  O=C(O)/C=C/C(=O)O.O=C1c2ccccc2C(=O)N1CCc1noc(-c2ccc(CN3CCCCCC3)s2)n1          µM                  20.5
 6          CCOP(=O)(OCC)Oc1cc(C)nc(C(C)C)n1          µM                  0.39
 7  CCOC(=O)CC(SP(=O)(OC)OC)C(=O)OCC (stereo not shown)          µM                  9.46
 8                          CNC(=O)ON=C(C)SC          µM                  9.75
 9                  CCOP(=S)(OCC)SCSC(C)(C)C          µM                  2.75
10    CCOC(=O)c1cn2nc(OP(=S)(OCC)OCC)cc2nc1C          µM                  4.46

These measurements were taken from paper PMC8041433.
